tested on: Escherichia coli; assay: Antimicrobial activity against Escherichia coli ATCC […] after 18 to 24 hrs by alamar blue assay; format: functional; conditions: Escherichia coli; read-out: MIC
MEASURE: MIC

Example entries and their recorded answers appear below.
# COMPOUND, MEASUREMENT TARGET, MIC
measured = [
    ("O=C(Nc1nnc(-c2ccccc2Cl)o1)c1cccc(C(F)(F)F)c1", "Escherichia coli", "> 256 µg/mL"),
    ("CCc1ccccc1NS(=O)(=O)c1ccc2c(c1)NC(C)CC(=O)S2 (stereo not drawn)", "Escherichia coli", "> 256 µg/mL"),
    ("Cc1c(CC(=O)NCCCC(=O)O)c(=O)oc2c(C)c3occ(-c4ccc(Cl)cc4)c3cc12", "Escherichia coli", "> 256 µg/mL"),
]

Kindly note the recorded MIC for "O=C(CCN1C(=O)c2cccc3cccc(c23)C1=O)N1CCN(C/C=C/c2ccccc2)CC1" , which is > 256 µg/mL

Kindly note the recorded MIC for CCc1ccccc1NS(=O)(=O)c1ccc2c(c1)NC(=O)C(C)S2 (stereo not drawn) , which is > 256 µg/mL

----------
experiment: Displacement of fluorescein-labeled moenomycin from transglycosylase at 100 uM after 30 mins by fluorescence anisotropy binding assay
MEASURE: inhibition (%)
Enter your answer as a number in %; do not include the unit.

Example entries and their recorded answers appear below.
# COMPOUND, ENDPOINT UNIT, inhibition
records = [
    ("O=C(Nc1cc(Cl)ccc1Oc1ccccc1)c1cc(Br)cc(Br)c1O", "%", 97),
    ("Cc1c(CCC(=O)O)c(=O)oc2c(C)c3occ(-c4ccc(Cl)cc4)c3cc12", "%", 97),
    ("O=C(Nc1cccc2cccnc12)c1ccc([N+](=O)[O-])o1", "%", 90),
    ("COc1cccc(-c2coc3c(C)c4oc(=O)c(CCC(=O)O)c(C)c4cc23)c1", "%", 90),
    ("O=C(c1ccc(Cl)cc1)c1cc(NC(=O)c2cc(Cl)cc(Br)c2O)c(Cl)cc1Cl", "%", 92),
    ("O=C(Nc1ccc(Cl)c(Cl)c1)c1cc(Cl)ccc1NS(=O)(=O)c1ccc(Cl)cc1", "%", 98),
    ("O=C(Nc1ccc(C(F)(F)F)cc1)N1CCN(c2nc(CCc3ccccc3)nc3sc4c(c23)CCCC4)CC1", "%", 90),
    ("CCn1cc(C(=O)O)c(=O)c2cc(F)c(N3CCN(C(=O)c4cccc(C)c4)CC3)cc21", "%", 93),
]

Kindly note the recorded inhibition for "Cc1ccc(Nc2nc3nonc3nc2Nc2cccc(C(F)(F)F)c2)cc1Cl" , which is 90

Kindly note the recorded inhibition for O=C(Nc1ccc(Cl)c(Cl)c1)c1cc(Cl)cc(Cl)c1O [3,3',4',5-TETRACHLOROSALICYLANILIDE] , which is 90

Kindly note the recorded inhibition for "C(=C\c1nc([P+](c2ccccc2)(c2ccccc2)c2ccccc2)c(N2CCCCCC2)o1)/c1ccccc1" , which is 97

Kindly note the recorded inhibition for "O=C(Nc1ccc(Cl)c(Cl)c1)c1ccc([N+](=O)[O-])o1" , which is 96

Kindly note the recorded inhibition for "CCN(CC)c1cc(C)c2cc(NC(=O)c3ccc([N+](=O)[O-])o3)ccc2n1" , which is 90

Kindly note the recorded inhibition for "Cc1ccc(OC(=O)c2cc(-c3ccc(C)c(C)c3)on2)c(C)c1" , which is 95

Kindly note the recorded inhibition for "CN1C(=O)c2ccccc2Sc2ccc(NC(=O)c3ccc([N+](=O)[O-])o3)cc21" , which is 91

----------
This section presents molecules with their documented IC90 values.
test: Inhibition of transglycosylase assessed as inhibition of NBD- labelled lipid II polymerization
Enter your answer as a number in µM; do not include the unit.

Example entries and their recorded answers appear below.
# COMPOUND SMILES, IC90 [µM]
rows = [
    ("O=C(c1ccccc1)c1cc(NC(=O)c2cc(Br)cc(Br)c2O)ccc1Cl", 100),
    ("O=C(Nc1cc(Cl)ccc1Oc1ccc(Br)c2ccccc12)c1cc(Cl)cc(I)c1O", 100),
    ("O=C(Nc1ccc(Oc2ccc(Br)c3ccccc23)c(Cl)c1)c1cc(Br)cc(Br)c1O", 100),
]

Kindly note the recorded IC90 for "O=C(Nc1cc(Cl)cc(C(=O)c2ccc(Cl)cc2)c1Cl)c1cc(Cl)cc(Br)c1O" , which is 100

Kindly note the recorded IC90 for "O=C(Nc1cc(Cl)cc(C(=O)c2ccccc2)c1Cl)c1cc(Br)cc(Br)c1O" , which is 100

Kindly note the recorded IC90 for "O=C(Nc1ccc(Oc2ccc(Cl)c3cccnc23)c(Br)c1)c1cc(Br)cc(Br)c1O" , which is 50

----------
test system: Staphylococcus aureus; assay: Antimicrobial activity against methicillin-resistant Staphylococcus aureus ATCC 33592 after 18 to 24 hrs by alamar blue assay; format: functional; conditions: Staphylococcus aureus, ATCC 33592; read-out: MIC
This section presents compounds with their documented MIC values.
Enter your answer as a number in µg/mL; do not include the unit.

Example entries and their recorded answers appear below.
# COMPOUND, MEASUREMENT TARGET, TEST RESULT
data = [
    ("O=C(Nc1ccc2oc(-c3ccncc3)nc2c1)c1ccc([N+](=O)[O-])o1", "Staphylococcus aureus", 4),
    ("O=C(Nc1cccc(Cl)c1)c1cc(Br)cc(Br)c1O", "Staphylococcus aureus", 2),
    ("CN1C(=O)c2ccccc2Sc2ccc(NC(=O)c3ccc([N+](=O)[O-])o3)cc21", "Staphylococcus aureus", 1),
    ("Cc1ccc(C(C)C)c(Oc2ccc(Cl)cc2NC(=O)c2cc(I)cc(I)c2O)c1", "Staphylococcus aureus", 0.5),
    ("CCCCN(C)S(=O)(=O)c1ccc(C(=O)Nc2nnc(-c3cccc(OC)c3)o2)cc1", "Staphylococcus aureus", 8),
    ("O=C(Nc1nnc(-c2ccc(Cl)cc2)o1)c1cccc(C(F)(F)F)c1", "Staphylococcus aureus", 0.5),
]

Kindly note the recorded MIC for "O=C(Nc1cc(Cl)cc(C(=O)c2ccc(Cl)cc2)c1Cl)c1cc(Br)cc(Br)c1O" , which is 2

Kindly note the recorded MIC for "NC(=O)c1oc2ccccc2c1NC(=O)c1ccc([N+](=O)[O-])o1" , which is 0.5

Kindly note the recorded MIC for "O=C(Nc1nnc(-c2ccc(F)cc2)o1)c1ccc(Cl)s1" , which is 1.2

Kindly note the recorded MIC for CCCc1cc(O)nc(N2NC(C)=CC2NC(=O)c2ccccc2Cl)n1 (stereo not drawn) , which is 0.5

----------
system: Staphylococcus aureus; test: Antimicrobial activity against methicillin-resistant Staphylococcus aureus ATCC 33592 after 18 to 24 hrs by alamar blue assay; assay type: functional; conditions: Staphylococcus aureus, ATCC 33592; read-out: MIC
MEASURE: MIC

Example entries and their recorded answers appear below.
# COMPOUND, TEST RESULT
measured = [
    ("O=C(c1ccc(Cl)cc1)c1cc(NC(=O)c2cc(Br)cc(Br)c2O)ccc1Br", "≤ 2 µg/mL"),
    ("CCC1Sc2ccc(S(=O)(=O)Nc3cc(Cl)ccc3C)cc2NC1=O (stereo not drawn)", "> 64 µg/mL"),
]

Kindly note the recorded MIC for "O=C(Nc1cc(Cl)ccc1Oc1ccc(Cl)c2ccccc12)c1cc(I)cc(I)c1O" , which is ≤ 2 µg/mL

----------
experiment: Inhibition of transglycosylase assessed as inhibition of NBD- labelled lipid II polymerization
MEASURE: IC90

# COMPOUND SMILES, IC90
data = [
    ("Cc1ccc(C)c(C(=O)c2cc(NC(=O)c3cc(Br)cc(Br)c3O)ccc2Oc2ccc(Cl)cc2)c1", "> 100 µM"),
    ("O=C(c1ccc(NC(=O)c2cc(Br)cc(Br)c2O)c(Cl)c1)c1cccs1", "> 100 µM"),
]

Here is the next item to consider.
Kindly note the recorded IC90 for "O=C(Nc1ccc(Sc2nc3ccccc3s2)c(Cl)c1)c1cc(Cl)cc(Cl)c1O" , which is > 100 µM

----------
system: Staphylococcus aureus; experiment: Antimicrobial activity against methicillin-resistant Staphylococcus aureus ATCC 33592 after 18 to 24 hrs by alamar blue assay; assay type: functional; conditions: Staphylococcus aureus, ATCC 33592; read-out: MIC
This section presents molecules with their documented MIC values.
Enter your answer as a number in mg/L; do not include the unit.

Example entries and their recorded answers appear below.
# MOLECULE, ENDPOINT UNIT, TEST RESULT
records = [
    ("O=C(Nc1cccc(-c2nc3ncccc3o2)c1)c1ccc([N+](=O)[O-])o1", "mg/L", 4),
    ("CC[C@@H](C)[C@H](NC(=O)Cc1c(C)c2cc3c(-c4ccc(Cl)cc4)coc3c(C)c2oc1=O)C(=O)O", "mg/L", 2.5),
    ("Cn1c(/C=C/c2ccc([N+](=O)[O-])o2)nc2ccccc2c1=O", "mg/L", 2),
]

"CNC(=O)c1ccsc1NC(=O)c1ccc([N+](=O)[O-])o1" on Staphylococcus aureus gives MIC = 0.5

CCc1ccccc1NS(=O)(=O)c1ccc2c(c1)NCC(C)C(=O)S2 (stereo not drawn) on Staphylococcus aureus gives MIC = 2

"Cc1c(CC(=O)N2CCC(C(=O)O)CC2)c(=O)oc2c(C)c3occ(-c4ccc(Cl)cc4)c3cc12" on Staphylococcus aureus gives MIC = 1.25

Cc1cccc(NS(=O)(=O)c2ccc3c(c2)NC(=O)C(C)S3)c1C (stereo not drawn) on Staphylococcus aureus gives MIC = 64

CCCc1cc(O)nc(N2NC(C)=CC2NC(=O)c2ccccc2F)n1 (stereo not drawn) on Staphylococcus aureus gives MIC = 0.5

"O=C(Nc1ccc(Cl)cc1)c1cc(Br)ccc1NS(=O)(=O)c1ccc(Cl)cc1" on Staphylococcus aureus gives MIC = 0.25

"O=C(Nc1cc(Cl)ccc1Oc1ccc(Cl)c2ccccc12)c1cc(Cl)cc(Br)c1O" on Staphylococcus aureus gives MIC = 16
